- ASSAY_OVERVIEW: Antiproliferative activity against multidrug-resistant P-gp expressing human KBVIN cells by sulforhodamine B assay
- Format: functional
ASSAY_ENDPOINT: GI50

Illustrative cases are given below, each with its answer.
C=C1[C@H]2C[C@@H]3C4N5C[C@]6(C)CCC[C@@]47[C@@H]6[C@@H]5C[C@]3([C@@H]1O)[C@H]7[C@H]2OC(=O)c1ccc(OC(F)(F)F)cc1 = 10 µM
C=C1[C@H]2C[C@@H]3C4N5C[C@]6(C)CCC[C@@]47[C@@H]6[C@@]5(O)C[C@]3([C@@H]1O)[C@H]7[C@H]2OC(=O)C(C)(C)C = > 20 µM
C=C1[C@H]2C[C@@H]3C4N5C[C@]6(C)CCC[C@@]47[C@@H]6[C@@H]5C[C@]3([C@@H]1O)[C@H]7[C@H]2OC(=O)c1ccc(F)cc1 = > 20 µM
C=C1[C@H]2C[C@@H]3C4N5C[C@]6(C)CCC[C@@]47[C@@H]6[C@@]5(OC(=O)c4ccc([N+](=O)[O-])cc4)C[C@]3([C@@H]1O)[C@H]7[C@H]2O = > 20 µM
CCN1C[C@]2(COC)CC[C@H](OC(=O)c3ccc(C(F)(F)F)cc3)[C@]34C1[C@@](O)([C@@H](OC)[C@H]23)[C@@]1(O)C[C@H](OC)[C@H]2C[C@@H]4[C@@H]1[C@H]2O = > 20 µM

Give the measured GI50 of "C=C1[C@H]2C[C@@H]3C4N5C[C@]6(C)CCC[C@@]47[C@@H]6[C@@H]5C[C@]3([C@@H]1O)[C@H]7[C@H]2OC(=O)c1ccccc1C(F)(F)F" .
> 20 µM

Then this molecule: CC1[C@H]2C[C@@H]3C4N5C[C@]6(C)CCC[C@@]47[C@@H]6[C@@]5(O)C[C@]3([C@@H]1O)[C@H]7[C@H]2O (stereo partly specified)
> 20 µM

Then this molecule: "C=C1[C@H]2C[C@@H]3C4N5C[C@]6(C)CCC[C@@]47[C@@H]6[C@@]5(O)C[C@]3([C@@H]1OC(=O)c1cccnc1)[C@H]7[C@H]2OC(=O)c1cccnc1"
> 20 µM

Then this molecule: CCN1C[C@]2(C)CC[C@H](O)[C@@]34C5C[C@@H]6[C@@H](OC)C[C@@](O)(C5[C@H]6O)[C@@H](CC23)C14 (stereo partly specified) [KARACOLINE]
> 20 µM

Then this molecule: "C=C1[C@H]2C[C@@H]3C4N5C[C@]6(C)CCC[C@@]47[C@@H]6[C@@]5(O)C[C@]3([C@@H]1O)[C@H]7[C@H]2OC(=O)c1ccc(C(F)(F)F)cc1"
10 µM

Then this molecule: "COC[C@]12CN(C)C3[C@@H]4[C@H](OC)[C@H]1[C@@]3([C@@H](OC)C[C@H]2O)[C@@H]1C[C@@]2(O)[C@H](OC(=O)c3ccccc3)[C@@H]1[C@]4(OC(C)=O)[C@@H](O)[C@@H]2OC"
> 20 µM
